B1: IQUB (parent)
chain: KIREKEEWIKLDYHRRHNPKTNED

- Variants of: B1
- Assay Details: protein stability index of a GFP-peptide fusion (GPS, HEK-293T) (PSI 1-6); higher = more stable;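 also: lentivirally expressed fusions sorted by FACS into six bins by GFP to DsRed ratio, PSI derived from sequencing read proportions per bin multiplied by bin number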
- Experimental Conditions: c terminus: a fixed tail appended
Each entry below lists one item and its recorded protein stability index value.

# example entries with known answers
INSERT INTO assay_data (mutation_code, observed_value) VALUES
  ('H17G', 4.97),
  ('K20D', 4.65),
  ('R15W', 4.16),
  ('N18M', 4.42),
  ('Y13A', 4.36);

stdin: Respond only with protein stability index recorded for `E6G`
stdout: 3.96

stdin: Identify measured protein stability index associated with `K10I`
stdout: 4.16

stdin: Entry `R15E` needs its protein stability index filled in; supply it.
stdout: 4.46
